test system: CAF#4 (primary prostate cancer-associated fibroblasts of iCAF-like type); assay: drug sensitivity score (DSS2, normalised partial AUC of dose-response, 72 h CellTiter-Glo viability) (DSS (dimensionless)); higher = more sensitive (stronger growth inhibition / cytotoxicity); extreme values may be limits of the assay
Collected drug sensitivity score values appear next to each entry.
Lab note: write the figure by itself, no unit.

Challenge: Query drug sensitivity score for COc1cc(Nc2ncc3c(n2)-c2ccc(Cl)cc2C(c2c(F)cccc2OC)=NC3)ccc1C(=O)O [Alisertib] (tested concentration range 1-10000 nM)
Response given: 4.5

Challenge: Query drug sensitivity score for COc1cc2c(NC3CCN(C(C)C)CC3)nc(C3CCCCC3)nc2cc1OCCCN1CCCC1 [UNC0638] (tested concentration range 1-10000 nM)
Response given: 0

Challenge: Query drug sensitivity score for CC(=O)[C@]1(O)Cc2c(O)c3c(c(O)c2[C@@H](O[C@H]2C[C@H](N)[C@H](O)[C@H](C)O2)C1)C(=O)c1ccccc1C3=O [Idarubicin] (tested concentration range 0.1-1000 nM)
Response given: 7.5

Challenge: Query drug sensitivity score for CCCCOc1nc(N)c2c(n1)N(Cc1cccc(CN3CCCC3)c1)CC(=O)N2 [Vesatolimod] (tested concentration range 1-10000 nM)
Response given: 0

Challenge: Query drug sensitivity score for Nc1nc(Cl)nc2c1ncn2[C@@H]1O[C@H](CO)[C@@H](O)[C@@H]1F [Clofarabine] (tested concentration range 1-10000 nM)
Response given: 4.6

Challenge: Query drug sensitivity score for CCOC(=O)CCNc1cc(N2CCc3ccccc3CC2)nc(-c2ccccn2)n1 [GSK-J4] (tested concentration range 10-100000 nM)
Response given: 3.7

Challenge: Query drug sensitivity score for CCCCNc1ncc(C(=O)NCc2ccc(-n3ccnc3)cc2)c(NC2CCC(O)CC2)n1 (stereo not drawn) [UNC2881] (tested concentration range 0.2-2500 nM)
Response given: 0.7

Challenge: Query drug sensitivity score for CNC(=O)[C@@H](NC(=O)[C@H](CC(C)C)[C@H](O)C(=O)NO)C(C)(C)C [Marimastat] (tested concentration range 1-10000 nM)
Response given: 0

Challenge: Query drug sensitivity score for CCS(=O)(=O)N1CCN(c2ccc(Nc3ncc(C(N)=O)c(NC4CC4)n3)cc2)CC1 [Cerdulatinib] (tested concentration range 1-10000 nM)
Response given: 0

Challenge: Query drug sensitivity score for CCOC(=O)C1=CCCC[C@H]1S(=O)(=O)Nc1ccc(F)cc1Cl [Resatorvid] (tested concentration range 1-10000 nM)
Response given: 0

Challenge: Query drug sensitivity score for Cn1cnc2c(F)c(Nc3ccc(Br)cc3Cl)c(C(=O)NOCCO)cc21 [Selumetinib] (tested concentration range 1-10000 nM)
Response given: 2.5

Challenge: Query drug sensitivity score for Cc1c(-c2ccc(N3CCc4cccc(C(=O)Nc5nc6ccccc6s5)c4C3)nc2C(=O)O)cnn1CC12CC3CC(CC(C3)C1)C2 (tested concentration range 0.1-1000 nM)
Response given: 3.1

Challenge: Query drug sensitivity score for C=CCn1c(=O)c2cnc(Nc3ccc(N4CCN(C)CC4)cc3)nc2n1-c1cccc(C(C)(C)O)n1 [Adavosertib] (tested concentration range 1-10000 nM)
Response given: 8.9

Challenge: Query drug sensitivity score for Cc1c(F)cc(C(=O)NC2CC2)cc1-c1ccc(C(=O)NCC(C)(C)C)cn1 [Losmapimod] (tested concentration range 1-10000 nM)
Response given: 0

Challenge: Query drug sensitivity score for O=C1c2c(O)ccc(O)c2C(=O)c2c(NCCNCCO)ccc(NCCNCCO)c21 [Mitoxantrone] (tested concentration range 0.1-1000 nM)
Response given: 5

Challenge: Query drug sensitivity score for CC(C)Nc1cc(-c2c[nH]c(C(=O)N[C@H](CO)c3cccc(Cl)c3)c2)c(Cl)cn1 [Ulixertinib] (tested concentration range 1-10000 nM)
Response given: 1.2

Challenge: Query drug sensitivity score for CS(=O)(=O)CCNCc1ccc(-c2ccc3ncnc(Nc4ccc(OCc5cccc(F)c5)c(Cl)c4)c3c2)o1 [Lapatinib] (tested concentration range 0.1-1000 nM)
Response given: 0

Challenge: Query drug sensitivity score for CNc1ncc2cc(-c3cc(NC(=O)NCCC(C)(C)C)c(F)cc3C)c(C)nc2n1 (tested concentration range 1-10000 nM)
Response given: 9.2

====

tested on: CAF#3 (primary prostate cancer-associated fibroblasts of myCAF-like type); test: drug sensitivity score (DSS2, normalised partial AUC of dose-response, 72 h CellTiter-Glo viability) (DSS (dimensionless)); higher = more sensitive (stronger growth inhibition / cytotoxicity); extreme values may be limits of the assay
# label = true if drug sensitivity score >= 7 else false

Worked cases, answers included:
Molecule	Assay System	Class Name
CCc1cc2c(cc1N1CCC(N3CCOCC3)CC1)C(C)(C)c1[nH]c3cc(C#N)ccc3c1C2=O [Alectinib] (tested concentration range 0.1-1000 nM)	CAF#3	false
CNC(=O)[C@@H](NC(=O)[C@H](CC(C)C)[C@H](O)C(=O)NO)C(C)(C)C [Marimastat] (tested concentration range 1-10000 nM)	CAF#3	false

Challenge: Dear colleague, could you confirm whether N#Cc1ccnc(N2C(=O)CC[C@H]2C(=O)N(c2cncc(F)c2)[C@H](C(=O)NC2CC(F)(F)C2)c2ccccc2Cl)c1 [Ivosidenib] (tested concentration range 1-10000 nM) has drug sensitivity score at or above 7?
Response given: false

Challenge: Dear colleague, could you confirm whether CC(=O)O[C@H]1C(=O)[C@@]2(C)[C@H]([C@H](OC(=O)c3ccccc3)[C@]3(O)C[C@H](OC(=O)[C@H](O)[C@@H](NC(=O)c4ccccc4)c4ccccc4)C(C)=C1C3(C)C)[C@]1(OC(C)=O)CO[C@@H]1C[C@@H]2O [Paclitaxel] (tested concentration range 0.1-1000 nM) has drug sensitivity score at or above 7?
Response given: true

====

tested on: CAF#4; test: drug sensitivity score (DSS2, normalised partial AUC of dose-response, 72 h CellTiter-Glo viability) (DSS (dimensionless)); higher = more sensitive (stronger growth inhibition / cytotoxicity); extreme values may be limits of the assay
# label = yes if drug sensitivity score >= 1 else no

Worked cases, answers included:
Compound	Assay System	Class Name
CN(CC(=O)N(Cc1ccc(C2CCCCC2)cc1)c1ccc(C(=O)O)cc1)S(=O)(=O)c1c(F)c(F)c(F)c(F)c1F [SH-4-54] (tested concentration range 2.5-25000 nM)	CAF#4	yes
CN1CC[C@@H](NC(=O)Nc2ccc(C#N)cc2)C[C@@H]1c1nc2ccccc2[nH]1 [Glasdegib] (tested concentration range 0.1-1000 nM)	CAF#4	no
CCN1CCN(c2ccc(Nc3cc(N(C)C(=O)Nc4c(Cl)c(OC)cc(OC)c4Cl)ncn3)cc2)CC1 [Infigratinib] (tested concentration range 0.1-1000 nM)	CAF#4	no
COc1cc2nccc(Oc3ccc(NC(=O)C4(C(=O)Nc5ccc(F)cc5)CC4)cc3)c2cc1OC [Cabozantinib] (tested concentration range 0.1-1000 nM)	CAF#4	yes
O=C(NCc1ccncc1)C12CC3CC(C1)CC(c1ccc(Cl)cc1)(C3)C2 [Opaganib] (tested concentration range 5-50000 nM)	CAF#4	yes
N#Cc1ccc(C(c2ccc(C#N)cc2)n2cncn2)cc1 [Letrozole] (tested concentration range 1-10000 nM)	CAF#4	no
CCn1c(-c2nonc2N)nc2c(C#CC(C)(C)O)ncc(OC[C@H]3CCCNC3)c21 (tested concentration range 1-10000 nM)	CAF#4	yes
CC[C@@H](C(=O)[C@@H](C)[C@@H](O)[C@H](C)[C@@H]1O[C@@H]([C@@H](CC)C(=O)O)CC[C@@H]1C)[C@H]1O[C@]2(C=C[C@@H](O)[C@]3(CC[C@@](C)([C@H]4CC[C@](O)(CC)[C@H](C)O4)O3)O2)[C@H](C)C[C@@H]1C [Salinomycin] (tested concentration range 5-50000 nM)	CAF#4	yes
CC1(C)CCC(CN2CCN(c3ccc(C(=O)NS(=O)(=O)c4ccc(NCC5CCOCC5)c([N+](=O)[O-])c4)c(Oc4cnc5[nH]ccc5c4)c3)CC2)=C(c2ccc(Cl)cc2)C1 [Venetoclax] (tested concentration range 0.1-1000 nM)	CAF#4	no

Now, please, on to the next compound.
Challenge: Dear colleague, could you confirm whether CC(C)C[C@H](NC(=O)[C@H](Cc1ccccc1)NC(=O)c1cnccn1)B(O)O [Bortezomib] (tested concentration range 0.1-1000 nM) has drug sensitivity score at or above 1?
Response given: yes

====

system: CAF#4; assay: drug sensitivity score (DSS2, normalised partial AUC of dose-response, 72 h CellTiter-Glo viability) (DSS (dimensionless)); higher = more sensitive (stronger growth inhibition / cytotoxicity); extreme values may be limits of the assay
Experimental Readout: drug sensitivity score
Lab note: write the figure by itself, no unit.

Challenge: Query drug sensitivity score for N.N.[Cl][Pt][Cl] [Cisplatin] (tested concentration range 10-100000 nM)
Response given: 5

Challenge: Query drug sensitivity score for O=C(c1ccc(OCCN2CCCCC2)cc1)c1c(-c2ccc(O)cc2)sc2cc(O)ccc12 [Raloxifene] (tested concentration range 1-10000 nM)
Response given: 0.5

Challenge: Query drug sensitivity score for Cn1nnc2c(C(N)=O)ncn2c1=O [Temozolomide] (tested concentration range 10-100000 nM)
Response given: 0

Challenge: Query drug sensitivity score for CC(C)C[C@@H](C(=O)N[C@H](C(=O)OC1CCCC1)c1ccccc1)[C@H](O)C(=O)NO [Tosedostat] (tested concentration range 1-10000 nM)
Response given: 0

Challenge: Query drug sensitivity score for O=c1[nH]c(=O)n([C@H]2C[C@H](O)[C@@H](CO)O2)cc1C(F)(F)F [Trifluridine] (tested concentration range 1-10000 nM)
Response given: 0

Challenge: Query drug sensitivity score for Cc1sc2c(c1C)C(c1ccc(Cl)cc1)=N[C@@H](CC(=O)Nc1ccc(OCCOCCOCCOCCNc3cccc4c3C(=O)N(C3CCC(=O)NC3=O)C4=O)cc1)c1nnc(C)n1-2 (stereo partly specified) [ARV-825] (tested concentration range 0-300 nM)
Response given: 6.9
